Just for reference, patent US7045528B2 is where these values come from.

# assayed.system: unphosphorylated VEGF-R2Δ50 (FLVK) (Homo sapiens, UniProt P35968, DEL940-989/E990V)
# Construct: VEGF-R2Δ50 contains residues 806–939 and 990–1171
# Sequence (P35968 with tags, fused parts or gaps DEL940-989/E990V limits assumed): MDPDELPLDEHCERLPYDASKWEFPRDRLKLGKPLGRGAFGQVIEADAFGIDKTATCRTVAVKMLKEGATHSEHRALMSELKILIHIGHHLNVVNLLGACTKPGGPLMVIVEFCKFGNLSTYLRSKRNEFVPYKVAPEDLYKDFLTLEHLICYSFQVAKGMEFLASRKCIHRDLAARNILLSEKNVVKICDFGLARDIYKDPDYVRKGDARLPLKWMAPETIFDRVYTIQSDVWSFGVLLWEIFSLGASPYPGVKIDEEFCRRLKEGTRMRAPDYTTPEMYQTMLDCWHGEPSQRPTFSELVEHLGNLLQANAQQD
# method.notes: VEGF-R2 coupled spectrophotometric assay, unphosphorylated VEGF-R2Δ50 (FLVK)
# experimental.context: unphosphorylated VEGF-R2Δ50
pKi: −log10 of the molar value.
measured.metric: pKi

Recorded results for 5 compounds are shown here.
CNC(=O)c1c(C)n(C)c2cc(Oc3ccnc4cc(C(=O)N5CC(O)C5)sc34)ccc12 [Example 30]; 8.22
Cc1sc2cc(Oc3ccnc4cc(-c5nc(CO)cs5)sc34)ccc2c1C(=O)NC1CC1 [Example 129]; 9.70
CCCCNC(=O)c1c(C)oc2cc(Oc3ccnc4ccsc34)ccc12 [Example 105]; 8.08
CCc1sc2cc(Oc3ccnc4cc(-c5nccn5C)sc34)ccc2c1C(=O)NC [Example 134]; 8.84
CNC(=O)c1c(C)n(C)c2cc(Oc3ccnc4cc(-c5nc(C(C)(C)O)cs5)sc34)ccc12 [Example 40]; 8.53

P = CNC(=O)c1c(C)n(C)c2cc(Oc3ccnc4cc(-c5ncccn5)sc34)ccc12 [Example 50]
Q = CCCCNC(=O)c1c(C)n(C)c2cc(Oc3ccnc4cc(-c5nccs5)sc34)ccc12 [Example 62]
# returns the entry with the larger pKi; inputs P and Q Answer by quoting the chosen item's label. Q
(Q: 9.24, P: 7.44)

----------
# assayed.system: PDGFRβ (Homo sapiens)
# Construct: expressed in transfected cells; host or cells: porcine aorta endothelial (PAE)-PDGFRβ cells
# Sequence (P09619 33-1106): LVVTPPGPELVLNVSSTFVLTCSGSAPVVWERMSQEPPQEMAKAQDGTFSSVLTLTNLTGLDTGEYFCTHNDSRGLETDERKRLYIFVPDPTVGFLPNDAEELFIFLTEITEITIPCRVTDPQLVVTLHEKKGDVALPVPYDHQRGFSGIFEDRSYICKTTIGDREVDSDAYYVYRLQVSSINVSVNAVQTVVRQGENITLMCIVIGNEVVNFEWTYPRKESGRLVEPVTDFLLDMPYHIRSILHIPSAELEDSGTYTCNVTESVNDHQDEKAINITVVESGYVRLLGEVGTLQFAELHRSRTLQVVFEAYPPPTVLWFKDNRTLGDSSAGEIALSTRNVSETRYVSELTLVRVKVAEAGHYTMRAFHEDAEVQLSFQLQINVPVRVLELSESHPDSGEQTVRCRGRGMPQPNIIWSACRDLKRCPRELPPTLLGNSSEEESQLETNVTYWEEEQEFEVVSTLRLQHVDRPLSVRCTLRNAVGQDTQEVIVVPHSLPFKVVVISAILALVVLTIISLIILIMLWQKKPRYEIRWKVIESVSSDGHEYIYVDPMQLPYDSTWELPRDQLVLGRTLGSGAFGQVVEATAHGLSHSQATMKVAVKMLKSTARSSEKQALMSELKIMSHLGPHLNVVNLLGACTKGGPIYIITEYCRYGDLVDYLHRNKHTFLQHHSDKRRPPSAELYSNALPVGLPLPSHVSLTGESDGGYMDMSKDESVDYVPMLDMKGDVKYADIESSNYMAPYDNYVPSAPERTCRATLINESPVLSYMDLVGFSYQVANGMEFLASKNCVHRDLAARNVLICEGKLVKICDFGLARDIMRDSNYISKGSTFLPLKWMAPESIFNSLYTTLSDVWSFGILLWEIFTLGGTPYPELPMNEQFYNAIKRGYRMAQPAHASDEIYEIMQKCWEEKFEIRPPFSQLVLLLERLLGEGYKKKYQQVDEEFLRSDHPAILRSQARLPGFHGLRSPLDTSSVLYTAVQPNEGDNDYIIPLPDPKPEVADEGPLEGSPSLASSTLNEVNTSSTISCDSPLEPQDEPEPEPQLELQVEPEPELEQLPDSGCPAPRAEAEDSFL
# method.notes: PAE-PDGFRβ phosphorylation in PAE-PDGFRB cells assay
# Format: cell-based
# experimental.context: PAE cells overexpressing human PDGFRβ, PDGF-BB stimulated; read-out: PAE PDGFR autophos IC50 (nM) AVG
measured.metric: IC50 (nM)

Cc1c(C(=O)NCC2CC2)c2ccc(Oc3ccnc4cc(C(=O)N5CC[C@@H](O)C5)sc34)cc2n1C; 109
CNC(=O)c1c(C)oc2cc(Oc3ccnc4cc(-c5nccn5C)sc34)ccc12; 41
CNC(=O)c1c(C)oc2cc(Oc3ccnc4cc(C(=O)N5CCC[C@H]5CO)sc34)ccc12; 31
CO[C@@H]1CCN(C(=O)c2cc3nccc(Oc4ccc5c(C(=O)NC6CC6)c(C)oc5c4)c3s2)C1; 250
CNC(=O)c1c(C)n(C)c2cc(Oc3ccnc4cc(C(=O)N5CC(O)C5)sc34)ccc12; 74

A = Cc1c(C(=O)NCCCO)c2ccc(Oc3ccnc4cc(C(=O)N5CCC5)sc34)cc2n1C
B = Cc1c(C(=O)Nc2ccccn2)c2ccc(Oc3ccnc4cc(-c5nccn5C)sc34)cc2n1C
C = CCCNC(=O)c1c(C)n(C)c2cc(Oc3ccnc4cc(C(=O)N5CCC[C@H]5CO)sc34)ccc12
D = CNC(=O)c1c(C)n(C)c2cc(Oc3ccnc4cc(-c5ccc(OC)cn5)sc34)ccc12
Please list these in order of increasing IC50. Thank you! As an answer, provide the labels arranged in the order called for. B, D, A, C

1 = CNC(=O)c1c(C)n(C)c2cc(Oc3ccnc4cc(-c5cncnc5)sc34)ccc12
2 = CNC(=O)c1c(C)n(C)c2cc(Oc3ccnc4cc(C(=O)N5CCCC5)sc34)ccc12
Lower value of IC50 belongs to which: 1 or 2 ? Please identify the chosen entry by its label. 2
(2: 15 nM, 1: 61 nM)

A = Cc1c(C(=O)NC(C)C)c2ccc(Oc3ccnc4cc(-c5nccs5)sc34)cc2n1C
B = CCCNC(=O)c1c(C)n(C)c2cc(Oc3ccnc4cc(-c5nccn5C)sc34)ccc12
C = CO[C@@H]1CCN(C(=O)c2cc3nccc(Oc4ccc5c(C(=O)NCCO)c(C)oc5c4)c3s2)C1
D = Cc1sc2cc(Oc3ccnc4ccsc34)ccc2c1C(=O)NCCN1CCOCC1
Please list these in order of increasing IC50. Thank you! List the labels in the requested order. B, C, A, D
(B: 17.8 nM, C: 44 nM, A: 90.7 nM, D: 468 nM)
